# TEST_NAME: Cytotoxicity against BALB/c mouse peritoneal cavity cells at 100 ug/mL after 20 hrs by MTT assay
# Assay type: cell-based
READOUT_LABEL: Activity (%)

INSERT INTO results (input_smiles, unit_of_measure, value_reported) VALUES
  ('N#Cc1ccc(/C=N/NC(=O)/C(=C/c2cnn(-c3ccccc3)c2)c2ccccc2)cc1', '%', 0),
  ('O=C(N/N=C/c1ccccc1)/C(=C/c1cnn(-c2ccccc2)c1)c1ccc(O)cc1', '%', 9.64),
  ('O=C(N/N=C/c1ccc([N+](=O)[O-])cc1)/C(=C/c1cnn(-c2ccccc2)c1)c1ccccc1', '%', 19.4),
  ('CN(C)c1ccc(/C=N/NC(=O)/C(=C/c2cnn(-c3ccccc3)c2)c2ccc(O)cc2)cc1', '%', 12.94),
  ('NNC(=O)/C(=C/c1cnn(-c2ccccc2)c1)c1ccccc1', '%', 0),
  ('CN(C)c1ccc(/C=N/NC(=O)/C(=C/c2cnn(-c3ccccc3)c2)c2ccc(Br)cc2)cc1', '%', 0),
  ('CN(C)c1ccc(/C=N/NC(=O)/C(=C/c2cnn(-c3ccccc3)c2)c2ccccc2)cc1', '%', 0),
  ('COc1ccc(/C=N/NC(=O)/C(=C/c2cnn(-c3ccccc3)c2)c2ccc(F)cc2)cc1', '%', 14.8),
  ('CCOc1ccc(/C=N/NC(=O)/C(=C/c2cnn(-c3ccccc3)c2)c2ccccc2)cc1', '%', 0),
  ('O=C(N/N=C/c1ccc(Br)cc1)/C(=C/c1cnn(-c2ccccc2)c1)c1ccccc1', '%', 14.35),
  ('COc1ccc(/C(=C\c2cnn(-c3ccccc3)c2)C(=O)N/N=C/c2ccc(C#N)cc2)cc1', '%', 14.35),
  ('N#Cc1ccc(/C=N/NC(=O)/C(=C/c2cnn(-c3ccccc3)c2)c2ccc(C(F)(F)F)cc2)cc1', '%', 0),
  ('O=C(N/N=C/c1ccc(Br)cc1)/C(=C/c1cnn(-c2ccccc2)c1)c1ccc(C(F)(F)F)cc1', '%', 0),
  ('COc1ccc(/C(=C\c2cnn(-c3ccccc3)c2)C(=O)N/N=C/c2ccc([N+](=O)[O-])cc2)cc1', '%', 11.22),
  ('COc1ccc(/C(=C\c2cnn(-c3ccccc3)c2)C(=O)N/N=C/c2ccc(Br)cc2)cc1', '%', 0),
  ('O=C(N/N=C/c1ccccc1)/C(=C/c1cnn(-c2ccccc2)c1)c1ccc(F)cc1', '%', 0),
  ('O=C(N/N=C/c1ccc(O)cc1)/C(=C/c1cnn(-c2ccccc2)c1)c1ccccc1', '%', 12.32),
  ('O=C(N/N=C/c1ccccc1)/C(=C/c1cnn(-c2ccccc2)c1)c1ccccc1', '%', 4),
  ('COc1ccc(/C(=C\c2cnn(-c3ccccc3)c2)C(=O)N/N=C/c2ccc(O)cc2)cc1', '%', 12.04),
  ('CN(C)c1ccc(/C=N/NC(=O)/C(=C/c2cnn(-c3ccccc3)c2)c2ccc(F)cc2)cc1', '%', 12.2),
  ('O=C(N/N=C/c1ccc([N+](=O)[O-])cc1)/C(=C/c1cnn(-c2ccccc2)c1)c1ccc(C(F)(F)F)cc1', '%', 0),
  ('CSc1ccc(/C=N/NC(=O)/C(=C/c2cnn(-c3ccccc3)c2)c2ccccc2)cc1', '%', 22.8),
  ('O=C(N/N=C/c1ccc(Cl)cc1)/C(=C/c1cnn(-c2ccccc2)c1)c1ccccc1', '%', 0),
  ('CN(C)c1ccc(/C=N/NC(=O)/C(=C/c2cnn(-c3ccccc3)c2)c2ccc(C(F)(F)F)cc2)cc1', '%', 23.07),
  ('O=C(N/N=C/c1ccc(F)cc1)/C(=C/c1cnn(-c2ccccc2)c1)c1ccccc1', '%', 0),
  ('N#Cc1ccc(/C=N/NC(=O)/C(=C/c2cnn(-c3ccccc3)c2)c2ccc(F)cc2)cc1', '%', 0),
  ('COc1ccc(/C=N/NC(=O)/C(=C/c2cnn(-c3ccccc3)c2)c2ccccc2)cc1', '%', 0);
